Below, each of the compounds is paired with its reported IC50 value.
System: NCI-H460
Assay: cells
Format: functional, cell-based
Settings: Homo sapiens, NCI-H460, 96 h
Description: Cytotoxicity against human NCI-H460 cells after 96 hrs by MTT assay
Property Label: IC50 (nM)

Compound: COc1ccc(-c2cc3c(C)nc(N)nc3n([C@H]3CC[C@H](OCCO)CC3)c2=O)cn1 [PF-04691502]
Assay System: NCI-H460
Quantity Unit: nM
Value: 200

Compound: COc1ncc(-c2cc(OC(C)C)c3nc(N)nc(C)c3c2)cc1NS(=O)(=O)c1ccc(F)cc1F
Assay System: NCI-H460
Quantity Unit: nM
Value: 140

Compound: COc1ncc(-c2cc(OC3CCOCC3)c3nc(N)nc(C)c3c2)cc1F
Assay System: NCI-H460
Quantity Unit: nM
Value: 1100

Compound: COc1ncc(-c2cc(OC3CCOCC3)c3nc(N)nc(C)c3c2)cc1NS(C)(=O)=O
Assay System: NCI-H460
Quantity Unit: nM
Value: 860

Compound: COc1ncc(-c2cc(OC3CCOCC3)c3nc(N)nc(C)c3c2)cc1NS(=O)(=O)c1ccc(F)cc1
Assay System: NCI-H460
Quantity Unit: nM
Value: 96

Compound: COc1ncc(-c2cc(OC)c3nc(N)nc(C)c3c2)cc1NS(=O)(=O)c1ccc(F)cc1F
Assay System: NCI-H460
Quantity Unit: nM
Value: 280

Compound: CCNc1nc(C)c2cc(-c3cnc(OC)c(NS(=O)(=O)c4ccc(F)cc4F)c3)cc(OC3CCOCC3)c2n1
Assay System: NCI-H460
Quantity Unit: nM
Value: 240

Compound: COc1ccc(-c2cc(OC3CCOCC3)c3nc(N)nc(C)c3c2)cn1
Assay System: NCI-H460
Quantity Unit: nM
Value: 980

Compound: COc1ncc(-c2cc(OC3CCCCC3)c3nc(N)nc(C)c3c2)cc1NS(=O)(=O)c1ccc(F)cc1F
Assay System: NCI-H460
Quantity Unit: nM
Value: 96

Compound: CNc1nc(C)c2cc(-c3cnc(OC)c(NS(=O)(=O)c4ccc(F)cc4F)c3)cc(OCC3CCOCC3)c2n1
Assay System: NCI-H460
Quantity Unit: nM
Value: 400

Compound: COc1ncc(-c2cc(OCCN3CCOCC3)c3nc(N)nc(C)c3c2)cc1NS(=O)(=O)c1ccc(F)cc1F
Assay System: NCI-H460;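 note: cytotoxicity determined with an MTT assay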
Quantity Unit: nM
Value: 1100

meta.source: ChEMBL document CHEMBL4145625
